# System: HCC-78
# methodNotes: relative viability (nuclei count vs DMSO), 5 days (fraction); higher = more cells survive
# conditionSummary: first compound 0.8 µM
readoutType: relative viability

- Oc1nc(-c2ccc(C(F)(F)F)cc2)nc2c1CSCC2 [XAV939] + O=C(CCCCCCC(=O)Nc1ccccc1)NO [Vorinostat] (partner 1 µM): 0.443
- C=C1C(=O)O[C@@H](CCCCCCCC)[C@@H]1C(=O)O [C-75] + CC1(C)CCC(c2ccc(Cl)cc2)=C(CN2CCN(c3ccc(C(=O)NS(=O)(=O)c4ccc(N[C@H](CCN5CCOCC5)CSc5ccccc5)c(S(=O)(=O)C(F)(F)F)c4)cc3)CC2)C1 [Navitoclax] (partner 0.5 µM): 0.75
- Oc1nc(-c2ccc(C(F)(F)F)cc2)nc2c1CSCC2 [XAV939] + CC(C)C[C@H](NC(=O)[C@H](Cc1ccccc1)NC(=O)c1cnccn1)B(O)O [Bortezomib] (partner 0.002 µM): 0.526
- C=C1C(=O)O[C@@H](CCCCCCCC)[C@@H]1C(=O)O [C-75] + COc1cc2c(Oc3ccc(NC(=O)C4(C(=O)Nc5ccc(F)cc5)CC4)cc3F)ccnc2cc1OCCCN1CCOCC1 [Foretinib] (partner 0.25 µM): 0.577
- Oc1nc(-c2ccc(C(F)(F)F)cc2)nc2c1CSCC2 [XAV939] + CS(=O)(=O)N1CCN(Cc2cc3nc(-c4cccc5[nH]ncc45)nc(N4CCOCC4)c3s2)CC1 [Pictilisib] (partner 1 µM): 0.161
- C=C1C(=O)O[C@@H](CCCCCCCC)[C@@H]1C(=O)O [C-75] + NC(=O)Nc1cc(-c2cccc(F)c2)sc1C(=O)N[C@H]1CCCNC1 [AZD7762] (partner 0.2 µM): 0.579
- Oc1nc(-c2ccc(C(F)(F)F)cc2)nc2c1CSCC2 [XAV939] + NC(=O)Nc1cc(-c2cccc(F)c2)sc1C(=O)N[C@H]1CCCNC1 [AZD7762] (partner 0.2 µM): 0.648
- Oc1nc(-c2ccc(C(F)(F)F)cc2)nc2c1CSCC2 [XAV939] + Nc1nc2[nH]cc(CCc3ccc(C(=O)N[C@@H](CCC(=O)O)C(=O)O)cc3)c2c(=O)[nH]1 [Pemetrexed] (partner 0.2 µM): 0.846

----------
# System: NCI-H1648
# methodNotes: relative viability (nuclei count vs DMSO), 5 days (fraction); higher = more cells survive
# conditionSummary: first compound 0.253 µM
readoutType: relative viability

* Oc1nc(-c2ccc(C(F)(F)F)cc2)nc2c1CSCC2 [XAV939] + CC(=O)Nc1cccc(-n2c(=O)n(C3CC3)c(=O)c3c(Nc4ccc(I)cc4F)n(C)c(=O)c(C)c32)c1 [Trametinib] (partner 0.02 µM) | 0.438
* Oc1nc(-c2ccc(C(F)(F)F)cc2)nc2c1CSCC2 [XAV939] + NC(=O)Nc1cc(-c2cccc(F)c2)sc1C(=O)N[C@H]1CCCNC1 [AZD7762] (partner 0.2 µM) | 0.501
* Oc1nc(-c2ccc(C(F)(F)F)cc2)nc2c1CSCC2 [XAV939] + O=C(c1cc(Cc2n[nH]c(=O)c3ccccc23)ccc1F)N1CCN(C(=O)C2CC2)CC1 [Olaparib] (partner 8 µM) | 0.63
* C=C1C(=O)O[C@@H](CCCCCCCC)[C@@H]1C(=O)O [C-75] + COc1cccc2cc(-c3nc([C@H]4CC[C@H](C(=O)O)CC4)n4ncnc(N)c34)[nH]c12 [OSI-027] (partner 0.5 µM) | 0.301

----------
# Tested on: NCI-H1915
# methodNotes: relative viability (nuclei count vs DMSO), 5 days (fraction); higher = more cells survive
# conditionSummary: first compound 0.253 µM
Field 'label' (enum: Y / N). Set to Y when relative viability is strictly under 0.4; else N.

• C=C1C(=O)O[C@@H](CCCCCCCC)[C@@H]1C(=O)O [C-75] + N=C(N)NC(=N)NCCc1ccccc1 [Phenformin] (partner 250 µM) = Y
• C=C1C(=O)O[C@@H](CCCCCCCC)[C@@H]1C(=O)O [C-75] + C[C@@H](Oc1cc(-c2cnn(C3CCNCC3)c2)cnc1N)c1c(Cl)ccc(F)c1Cl [Crizotinib] (partner 1 µM) = N
• Oc1nc(-c2ccc(C(F)(F)F)cc2)nc2c1CSCC2 [XAV939] + Cc1cc(Nc2cc(N3CCN(C)CC3)nc(Sc3ccc(NC(=O)C4CC4)cc3)n2)n[nH]1 [Tozasertib] (partner 0.1 µM) = N
• C=C1C(=O)O[C@@H](CCCCCCCC)[C@@H]1C(=O)O [C-75] + C[C@]1(O)C[C@@H](c2nc(-c3ccc4ccc(-c5ccccc5)nc4c3)c3c(N)nccn32)C1 [Linsitinib] (partner 1 µM) = N
• Oc1nc(-c2ccc(C(F)(F)F)cc2)nc2c1CSCC2 [XAV939] + Cc1nc(Nc2ncc(C(=O)Nc3c(C)cccc3Cl)s2)cc(N2CCN(CCO)CC2)n1 [Dasatinib] (partner 0.075 µM) = Y

----------
relative viability reference
# Test system: 201T
# methodNotes: relative viability (nuclei count vs DMSO), 5 days (fraction); higher = more cells survive
# conditionSummary: first compound 0.1 µM
readoutType: relative viability

* NC(=O)Nc1cc(-c2cccc(F)c2)sc1C(=O)N[C@H]1CCCNC1 [AZD7762] + Nc1nc2[nH]cc(CCc3ccc(C(=O)N[C@@H](CCC(=O)O)C(=O)O)cc3)c2c(=O)[nH]1 [Pemetrexed] (partner 0.2 µM) | 0.307
* NC(=O)Nc1cc(-c2cccc(F)c2)sc1C(=O)N[C@H]1CCCNC1 [AZD7762] + O=C(c1cc(Cc2n[nH]c(=O)c3ccccc23)ccc1F)N1CCN(C(=O)C2CC2)CC1 [Olaparib] (partner 8 µM) | 0.885
* NC(=O)Nc1cc(-c2cccc(F)c2)sc1C(=O)N[C@H]1CCCNC1 [AZD7762] + C[C@@H](Oc1cc(-c2cnn(C3CCNCC3)c2)cnc1N)c1c(Cl)ccc(F)c1Cl [Crizotinib] (partner 1 µM) | 1.03
* NC(=O)Nc1cc(-c2cccc(F)c2)sc1C(=O)N[C@H]1CCCNC1 [AZD7762] + CC1(C)CCC(c2ccc(Cl)cc2)=C(CN2CCN(c3ccc(C(=O)NS(=O)(=O)c4ccc(N[C@H](CCN5CCOCC5)CSc5ccccc5)c(S(=O)(=O)C(F)(F)F)c4)cc3)CC2)C1 [Navitoclax] (partner 0.5 µM) | 1.21

----------
# System: NCI-H2085
# methodNotes: relative viability (nuclei count vs DMSO), 5 days (fraction); higher = more cells survive
# conditionSummary: first compound 0.1581 µM
readoutType: relative viability

- CC1(C)CCC(c2ccc(Cl)cc2)=C(CN2CCN(c3ccc(C(=O)NS(=O)(=O)c4ccc(N[C@H](CCN5CCOCC5)CSc5ccccc5)c(S(=O)(=O)C(F)(F)F)c4)cc3)CC2)C1 [Navitoclax] + Nc1ncn([C@H]2C[C@H](O)[C@@H](CO)O2)c(=O)n1 [Decitabine] (partner 2 µM): 0.579
- CC1(C)CCC(c2ccc(Cl)cc2)=C(CN2CCN(c3ccc(C(=O)NS(=O)(=O)c4ccc(N[C@H](CCN5CCOCC5)CSc5ccccc5)c(S(=O)(=O)C(F)(F)F)c4)cc3)CC2)C1 [Navitoclax] + CC(C)C[C@H](NC(=O)[C@H](Cc1ccccc1)NC(=O)c1cnccn1)B(O)O [Bortezomib] (partner 0.002 µM): 1.15
- CC1(C)CCC(c2ccc(Cl)cc2)=C(CN2CCN(c3ccc(C(=O)NS(=O)(=O)c4ccc(N[C@H](CCN5CCOCC5)CSc5ccccc5)c(S(=O)(=O)C(F)(F)F)c4)cc3)CC2)C1 [Navitoclax] + Nc1nc2[nH]cc(CCc3ccc(C(=O)N[C@@H](CCC(=O)O)C(=O)O)cc3)c2c(=O)[nH]1 [Pemetrexed] (partner 0.2 µM): 0.931

----------
relative viability reference
# Tested on: LC-2-ad
# methodNotes: relative viability (nuclei count vs DMSO), 5 days (fraction); higher = more cells survive
# conditionSummary: first compound 0.3162 µM
readoutType: relative viability

* NC(=O)Nc1cc(-c2cccc(F)c2)sc1C(=O)N[C@H]1CCCNC1 [AZD7762] + Cc1nc(NC(=O)N2CCC[C@H]2C(N)=O)sc1-c1ccnc(C(C)(C)C(F)(F)F)c1 [Alpelisib] (partner 2 µM) | 0.612
* NC(=O)Nc1cc(-c2cccc(F)c2)sc1C(=O)N[C@H]1CCCNC1 [AZD7762] + O=C(CCCCCCC(=O)Nc1ccccc1)NO [Vorinostat] (partner 1 µM) | 0.647
* NC(=O)Nc1cc(-c2cccc(F)c2)sc1C(=O)N[C@H]1CCCNC1 [AZD7762] + CCNC(=O)c1noc(-c2cc(C(C)C)c(O)cc2O)c1-c1ccc(CN2CCOCC2)cc1 [Luminespib] (partner 0.01 µM) | 0.991
* NC(=O)Nc1cc(-c2cccc(F)c2)sc1C(=O)N[C@H]1CCCNC1 [AZD7762] + N=C(N)NC(=N)NCCc1ccccc1 [Phenformin] (partner 250 µM) | 0.592
* NC(=O)Nc1cc(-c2cccc(F)c2)sc1C(=O)N[C@H]1CCCNC1 [AZD7762] + COc1cccc2cc(-c3nc([C@H]4CC[C@H](C(=O)O)CC4)n4ncnc(N)c34)[nH]c12 [OSI-027] (partner 0.5 µM) | 0.8
